Provenance of the data: patent US4483833A

experiment: pKa of aminoalkanol; assay type: physicochemical; conditions: at 20° C.
OUTCOME MEASURE: pKa

{"COMPOUND": "OCCOCCCN1CCCC1", "pKa": 10.20}
{"COMPOUND": "CC(O)COC(C)CN1CCCC1 (centres unmarked)", "pKa": 10.20}
{"COMPOUND": "OCCCN1CCCCC1 [HPPi, N-(3-hydroxypropyl)piperidine]", "pKa": 10.2}
{"COMPOUND": "CC(CCO)N1CCCC1 (centres unmarked) [H2BP, N-(4-hydroxy-2-butyl)pyrrolidine]", "pKa": 10.25}
{"COMPOUND": "OCCOCCN1CCCC1 [HEEP, N-(2-hydroxyethoxyethyl)pyrrolidine]", "pKa": 9.95}
{"COMPOUND": "OCCCN1CCCC1 [drawing 3]", "pKa": 10.20}
{"COMPOUND": "OCCN1CCCC1 [HEP, N-hydroxyethylpyrrolidine]", "pKa": 9.95}
{"COMPOUND": "OCCCCN1CCCC1 [HBP, N-(4-hydroxybutyl) pyrrolidine]", "pKa": 10.21}
{"COMPOUND": "OCCCN1CCCC1 [HPP, N-(3-hydroxypropyl)pyrrolidine]", "pKa": 10.21}
{"COMPOUND": "CC(O)CN1CCCC1 (centres unmarked)", "pKa": 10.20}
{"COMPOUND": "CN1CCCCC1CCO (centres unmarked) [MHEPi, N-methyl-2-hydroxyethylpiperidine]", "pKa": 9.90}
